Cited source for all entries: patent US7863321B2

- Protocol Details: in vivo
- Conditions: female, C3H/HeN, mouse, in vivo, ip, MTD
Where a name gives a salt, the structure may show the parent alone.
Provide the recorded MTD for the entries that follow.
Answer format: numeric, µmol/kg implied, no suffix.

Return reported MTD. Input compound: O=c1[nH]cc(F)c(=O)[nH]1
1780

Return reported MTD. Input compound: COc1cccc2c1C(=O)c1c(O)c3c(c(O)c1C2=O)C[C@@](O)(C(=O)CO)C[C@@H]3O[C@H]1C[C@H](N)[C@H](O)[C@H](C)O1 [Doxorubicin, hydrochloride]
23.7

----------
- Protocol Details: in vivo
- Conditions: female, C3H/HeN, mouse, in vivo, ip, MTD, chemotherapy drug alone, mice bearing MDAH-Mca-4 tumours
- Description: Compounds: A stock solution of DMXAA, synthesised in the Auckland Cancer Society Research Centre, was prepared in phosphate-buffered saline, protected from light and stored frozen. Cisplatin (Sigma Chemical Co., St. Louis, Mo.) was dissolved in 0.9% saline. Stock solutions of carboplatin and 5-fluorouracil (Bristol Myers Squibb, Sermonita, Italy) and cyclophosphamide (Mead Johnson Oncology Products, Princeton, N.J.) were diluted with sterile water. […]
Metric: MTD (µmol/kg)
Answer format: numeric, µmol/kg implied, no suffix.

Return reported MTD. Input compound: CC[C@]1(O)C[C@H]2CN(CCc3c([nH]c4ccccc34)[C@@](C(=O)OC)(c3cc4c(cc3OC)N(C=O)[C@H]3[C@@](O)(C(=O)OC)[C@H](OC(C)=O)[C@]5(CC)C=CCN6CC[C@]43[C@@H]65)C2)C1
1
